Entries and their MIC values follow.
# Test system: Proteus vulgaris 3027
# Assay: MIC against standard strain, plate method
# Format: cell-based
# Recorded conditions: Proteus vulgaris 3027, standard strain; unit assumed
Enter your answer as a number in µg/mL; do not include the unit.

Compound	MIC / µg/mL
CCCCN1C(=O)CN(C(=O)N[C@@H](C(=O)N[C@@H]2C(=O)N3[C@@H]2SC(C)(C)[C@@H]3C(=O)O)c2ccccc2)CC1C (stereo partly drawn) [compound 22]	6.25

Q: Consider the compound CC1(C)S[C@@H]2[C@H](NC(=O)[C@H](NC(=O)N3CCN(C(=O)c4ccc(Cl)cc4Cl)CC3=O)c3ccccc3)C(=O)N2[C@H]1C(=O)O [compound 10] and give its recorded MIC.
A: 3.13

Reference source for all entries: patent US4110327A
